Biological target: UniProt P00698
Sequence (P00698 whole entry): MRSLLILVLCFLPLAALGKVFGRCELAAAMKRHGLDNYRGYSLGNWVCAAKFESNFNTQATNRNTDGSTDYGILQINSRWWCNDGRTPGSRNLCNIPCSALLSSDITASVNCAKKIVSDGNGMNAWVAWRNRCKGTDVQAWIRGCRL
Assay: Renaturation of 0.1 mg/mL reduced hen egg white lysozyme assessed as apparent rate of renaturation at 3 mM at pH 8 by Micrococcus lysodeikticus lysis-based enzyme assay in presence of 0.2 mM GSSG
Measure Name: Activity (min⁻¹)
Form entry: value (min⁻¹) — number only.

Take a look at these entries with their results.
* O=C(OCCOCCOCCOCCS)c1ccc(S)cc1 | 0.072
* O=C(OCCOCCS)c1ccc(S)cc1 | 0.08
* O=C(OCCOCCOCCS)c1ccc(S)cc1 | 0.1

Okay, now this compound:
Incoming: Returns the measured Activity for the input compound. Input: `O=C(OCCOCCOCCOCCS)c1ccccc1S`
Outgoing: 0.023

====

Molecular target: UniProt P00698
Experiment: Renaturation of 0.1 mg/mL reduced hen egg white lysozyme assessed as maximum enzyme activity at 0.5 mM at pH 8 by Micrococcus lysodeikticus lysis-based enzyme assay in presence of 0.2 mM GSSG
Set-up: scale not given: the % may be the effect or the level left
Please mark class 1 if the recorded Activity is equal to or greater than 60%, and class 0 if it falls below.

Before answering, review these 4 worked examples.
- O=C(OCCOCCOCCS)c1ccc(S)cc1: class 1
- O=C(OCCOCCOCCS)c1ccccc1S: class 0
- O=C(OCCOCCOCCOCCS)c1ccc(S)cc1: class 1
- O=C(OCCOCCOCCOCCS)c1ccccc1S: class 1

Then this compound:
Incoming: Could you verify whether the entry `O=C(OCCOCCS)c1ccc(S)cc1` shows Activity of no less than 60%?
Outgoing: class 0

Entry source: ChEMBL document CHEMBL1932936
